This collection of values is drawn from the kinase profiling compilation of Christmann-Franck et al. (2016).

Property: residual activity; scope: individual compounds
- ASSAYED_SYSTEM: EPHA8 (human)
- PROCEDURE_DETAILS: radiometric filter-binding kinase assay, Kinase HotSpot
- EXPERIMENTAL_PARAMETERS: compound 0.5 µM; ATP 10 µM
Your answer should be a plain number; it is taken to be in %.

Check out these entries, answers already filled in.
1. O=C1c2ccccc2-c2nc3nnnn3nc21: 92.6
2. O=C(c1cc2cc(O)ccc2[nH]1)c1cc2cc(O)ccc2[nH]1: 92.9
3. CS(=O)(=O)CCNCc1ccc(-c2ccc3ncnc(Nc4ccc(OCc5cccc(F)c5)c(Cl)c4)c3c2)o1: 99.5
4. CN(C)S(=O)(=O)c1ccc2c(c1)/C(=C/c1cc3c([nH]1)CCCC3)C(=O)N2: 100

In: Give EPHA8 (human) residual activity for `O=C1NC(=O)c2c1c1c3ccccc3[nH]c1n1cncc21`
Out: 97.5
